TARGET_ENTITY: full-length TcdA (TcdA1-2710) (Clostridioides difficile strain VPI10463, UniProt P16154 1-2710)
Sequence (P16154 whole entry): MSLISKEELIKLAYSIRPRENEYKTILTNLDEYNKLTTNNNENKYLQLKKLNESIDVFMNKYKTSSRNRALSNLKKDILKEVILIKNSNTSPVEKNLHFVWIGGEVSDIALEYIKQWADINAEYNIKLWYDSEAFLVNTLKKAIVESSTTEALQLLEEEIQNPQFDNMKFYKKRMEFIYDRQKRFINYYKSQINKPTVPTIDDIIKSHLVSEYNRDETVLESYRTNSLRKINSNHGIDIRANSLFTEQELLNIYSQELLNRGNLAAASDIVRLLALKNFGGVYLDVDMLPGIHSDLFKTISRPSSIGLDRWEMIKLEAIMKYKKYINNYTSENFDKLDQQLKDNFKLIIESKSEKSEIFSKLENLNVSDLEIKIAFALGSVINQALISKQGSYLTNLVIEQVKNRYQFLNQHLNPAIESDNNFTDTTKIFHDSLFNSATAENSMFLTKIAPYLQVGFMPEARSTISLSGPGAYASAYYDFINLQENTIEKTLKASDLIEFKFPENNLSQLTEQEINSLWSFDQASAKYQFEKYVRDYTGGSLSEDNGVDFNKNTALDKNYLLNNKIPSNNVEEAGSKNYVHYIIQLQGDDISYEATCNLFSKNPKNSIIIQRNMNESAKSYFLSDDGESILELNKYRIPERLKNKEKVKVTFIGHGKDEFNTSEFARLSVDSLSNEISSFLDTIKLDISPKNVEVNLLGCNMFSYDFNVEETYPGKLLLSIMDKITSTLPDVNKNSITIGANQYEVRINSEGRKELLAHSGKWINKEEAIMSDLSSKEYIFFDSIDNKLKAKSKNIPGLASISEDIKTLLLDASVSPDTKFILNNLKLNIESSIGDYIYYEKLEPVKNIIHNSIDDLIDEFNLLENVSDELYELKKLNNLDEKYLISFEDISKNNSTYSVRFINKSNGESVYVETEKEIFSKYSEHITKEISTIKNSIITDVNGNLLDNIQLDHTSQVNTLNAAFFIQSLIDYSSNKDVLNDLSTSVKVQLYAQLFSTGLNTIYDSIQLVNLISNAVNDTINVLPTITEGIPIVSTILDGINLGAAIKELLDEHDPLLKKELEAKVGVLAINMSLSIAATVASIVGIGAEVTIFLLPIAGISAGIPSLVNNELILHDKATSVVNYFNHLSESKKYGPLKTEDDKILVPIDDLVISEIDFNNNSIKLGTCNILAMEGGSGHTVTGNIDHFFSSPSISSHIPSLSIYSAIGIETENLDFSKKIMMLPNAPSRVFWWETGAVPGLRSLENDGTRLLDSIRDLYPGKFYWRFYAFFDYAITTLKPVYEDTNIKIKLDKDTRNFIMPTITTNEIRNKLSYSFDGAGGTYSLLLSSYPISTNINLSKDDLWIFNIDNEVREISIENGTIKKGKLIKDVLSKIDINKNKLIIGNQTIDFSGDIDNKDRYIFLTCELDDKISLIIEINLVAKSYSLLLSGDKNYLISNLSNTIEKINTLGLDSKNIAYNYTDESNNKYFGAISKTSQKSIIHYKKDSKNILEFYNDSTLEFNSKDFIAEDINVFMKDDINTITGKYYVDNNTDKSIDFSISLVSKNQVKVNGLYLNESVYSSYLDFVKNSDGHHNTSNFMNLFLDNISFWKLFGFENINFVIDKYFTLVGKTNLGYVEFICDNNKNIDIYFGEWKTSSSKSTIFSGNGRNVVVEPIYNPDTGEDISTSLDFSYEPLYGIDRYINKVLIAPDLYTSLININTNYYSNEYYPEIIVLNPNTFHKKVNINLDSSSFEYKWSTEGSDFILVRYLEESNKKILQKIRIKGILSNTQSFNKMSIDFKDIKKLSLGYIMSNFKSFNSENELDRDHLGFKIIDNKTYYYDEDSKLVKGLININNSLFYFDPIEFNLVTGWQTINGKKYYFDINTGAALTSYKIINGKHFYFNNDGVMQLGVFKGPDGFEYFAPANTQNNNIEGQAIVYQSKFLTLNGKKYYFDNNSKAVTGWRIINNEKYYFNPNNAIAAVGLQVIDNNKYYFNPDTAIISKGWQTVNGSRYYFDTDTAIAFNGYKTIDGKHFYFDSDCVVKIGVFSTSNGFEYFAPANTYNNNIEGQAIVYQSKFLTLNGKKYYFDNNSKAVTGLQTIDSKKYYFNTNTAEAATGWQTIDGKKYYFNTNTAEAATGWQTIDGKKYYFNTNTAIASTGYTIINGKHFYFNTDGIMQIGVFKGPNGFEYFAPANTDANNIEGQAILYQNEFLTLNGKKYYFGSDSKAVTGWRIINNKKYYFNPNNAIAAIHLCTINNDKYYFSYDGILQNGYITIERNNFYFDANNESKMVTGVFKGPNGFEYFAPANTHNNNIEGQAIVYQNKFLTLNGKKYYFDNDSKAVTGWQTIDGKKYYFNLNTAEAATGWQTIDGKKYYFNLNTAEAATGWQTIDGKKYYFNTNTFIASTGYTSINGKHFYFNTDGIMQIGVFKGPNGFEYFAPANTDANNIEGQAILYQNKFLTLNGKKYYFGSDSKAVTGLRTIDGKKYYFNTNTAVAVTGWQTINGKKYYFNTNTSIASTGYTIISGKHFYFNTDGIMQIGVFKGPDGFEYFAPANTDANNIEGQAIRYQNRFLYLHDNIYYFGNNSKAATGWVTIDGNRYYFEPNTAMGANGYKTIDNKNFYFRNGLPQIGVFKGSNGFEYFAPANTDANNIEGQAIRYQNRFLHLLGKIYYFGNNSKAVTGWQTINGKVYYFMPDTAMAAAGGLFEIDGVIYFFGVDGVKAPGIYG
PROTOCOL: cell-based or functional assay
Attribute: EC50 (nM), TcdA neutralization, Vero cells
VALUE_TYPE: EC50 (nM), TcdA neutralization, Vero cells

• A2H9 (VHH) VHH: QVQLQESGGGLVQAGGSLRLSCAASGRASSTYVMAWFRQAPGKEREFVAADTWGGAGTYYAPSVKGRFTISRDNAKNMLYLQMNSLKPEDTAAYYCAAGQGRSVTLFQPSTYDYWGQGTQVTVSS = 8.7 nM
• A2C2 (VHH) VHH: QVQLQESGGGLVQTGGSLRLSCTASGRTFSRYAMGWFRQASGKEREFVAAISYSGGTTYYSDSVKGRFTISRDNAKSTVSLQMNSLKPEDTAVYYCAAGLFRGDLTRFTLDEYDYRGQGTQVTVSS = < 1 nM
• A2G6 (VHH) VHH: QVQLQESGGGLVQAGGSLRLSCAASGRTFSRIAMGWFRQVPGKEREFVAGISGNGGTFYTDSVKGRFTISRDNTKNTVYLQMNSLRPEDTAVYYCAADPNYRATYFPYGMDYYGRGTQVTVSS = < 1 nM
• A1C4 (VHH) VHH: QVQLQESGGGLVQPGGSLRLSCAASGRSFSINTMGWYRQAPGNKRDMVATITTGGNTNYADSVKGRFTISRDNAKNTVYLQMNSLKPEDTAVYYCRTVVVTPYPDEFEYDYWGQGTQVTVSS = 2.5 nM
• A2F12 (VHH) VHH: QVQLQESGGGLVQAGGSLRLSCAASGRTFSRYAMGWFRQAPGKEREFVAAISWSGDTTYDADSVKGRFTVSRDNAKNTVYLQMNSLKPEDTAVYYCAAGLFRGDLTKFELDEYDYRGQGTQVTVSS = < 1 nM
• A1C11 (VHH) VHH: QVQLQESGGGLVQAGDSLRLSCAASGRTFSRYAMGWFRQAPGKEREFVAAISWSGGTTYYADSVKGRFTISRDNAKNTVYLQMNSLKPEDTAVYYCAAGLFRGDLTRFKLDEYDYRGQGTQVTVSS = < 1 nM
• A2H4 (VHH) VHH: QVQLQESGGGLVQPGGSLRLSCAASGSIFSINAMGWYRQAPGKQRELVAKITSGGTTNYADSVKGRFTISRDGAKNTVYLQMNSLKPEDTAVYYCNLPWTSDLGWAVKDYWGQGTQVTVSS = 40.9 nM
• A1G4 (VHH) VHH: QVQLQESGGGLVQAGGSLRLSCAVSGRTLNSYAMGWFRQALGKEREFVAGISRAGGMTRYTDSVKGRFTISRDDAKNTVYLQMNSLKPDDTAVYSCAASFALVDSAGAYDYWGQGTQVTVSS = 8.5 nM
